- ASSAY OVERVIEW: AUC (0 to 6 hrs) in rat at 10 mg/kg, po
- Format: ADME, organism-based
- Design: time < 6 hr, dose 10 mg/kg, route oral
- ASSAY CONDITIONS: plasma
QUANTITY MEASURED: AUC(0-t) at 6 h (µM·h)
Dear colleague, please return just the value in µM·h, with no unit written.

### Prompt Using the record for CCCC[C@H](NC(=O)[C@@H]1C2C(CN1C(=O)[C@@H](NC(=O)NC1([C@H]3CCCS3(=O)=O)CCCCC1)C(C)(C)C)C2(C)C)C(=O)C(=O)NC1CC1 (single isomer, unassigned) , report its AUC(0-t) at 6 h.
### Response 0.9

----------
- ASSAY OVERVIEW: AUC (0 to 24 hrs) in monkey at 3 mg/kg, po
- Format: ADME, organism-based, Macaca mulatta
- Set-up: time < 24 hr, dose 3 mg/kg, route oral
- ASSAY CONDITIONS: rhesus monkey, plasma
Please enter y where AUC(0-t) at 24 h is greater than or equal to 2 µM·h, and n where it is lower.

### Prompt Has CC(C)(C)NC(=O)N[C@H](C(=O)N1C[C@H]2[C@@H]([C@H]1C(=O)NC(CC1CCC1)C(=O)C(N)=O)C2(C)C)C(C)(C)C (stereo partly specified) [BOCEPREVIR] a recorded AUC(0-t) at 24 h greater than or equal to 2 µM·h?
### Response n

### Prompt Has C=CCNC(=O)C(=O)[C@H](CCCC)NC(=O)[C@@H]1C2C(CN1C(=O)[C@@H](NC(=O)NC1([C@H]3CCCS3(=O)=O)CCCCC1)C(C)(C)C)C2(C)C (single isomer, unassigned) a recorded AUC(0-t) at 24 h greater than or equal to 2 µM·h?
### Response y

### Prompt Has `CC1([C@H](NC(=O)NC2([C@H]3CCCS3(=O)=O)CCCCC2)C(=O)N2C[C@@H]3[C@H]([C@H]2C(=O)N[C@@H](CCC2CC2)C(=O)C(=O)NC2CC2)C3(C)C)CCCCC1` a recorded AUC(0-t) at 24 h greater than or equal to 2 µM·h?
### Response y

### Prompt Has CCCC[C@H](NC(=O)[C@@H]1C2C(CN1C(=O)[C@@H](NC(=O)NC1([C@H]3CCCS3(=O)=O)CCCCC1)C(C)(C)C)C2(C)C)C(=O)C(=O)NC1CC1 (single isomer, unassigned) a recorded AUC(0-t) at 24 h greater than or equal to 2 µM·h?
### Response n

### Prompt Has CCCC[C@H](NC(=O)[C@@H]1C2C(CN1C(=O)[C@@H](NC(=O)NC1([C@H]3CCCS3(=O)=O)CCCCC1)C1(C)CCCCC1)C2(C)C)C(=O)C(=O)NC1CC1 (single isomer, unassigned) a recorded AUC(0-t) at 24 h greater than or equal to 2 µM·h?
### Response y

### Prompt Has CCC[C@H](NC(=O)[C@@H]1C2C(CN1C(=O)[C@@H](NC(=O)NC1([C@H]3CCCS3(=O)=O)CCCCC1)C1(C)CCCCC1)C2(C)C)C(=O)C(=O)NC1CC1 (single isomer, unassigned) a recorded AUC(0-t) at 24 h greater than or equal to 2 µM·h?
### Response y
